# TARGET_OF_ASSAY: human β1 adrenoceptor (β1 AR) (Homo sapiens, UniProt P08588)
# Sequence (P08588 whole entry): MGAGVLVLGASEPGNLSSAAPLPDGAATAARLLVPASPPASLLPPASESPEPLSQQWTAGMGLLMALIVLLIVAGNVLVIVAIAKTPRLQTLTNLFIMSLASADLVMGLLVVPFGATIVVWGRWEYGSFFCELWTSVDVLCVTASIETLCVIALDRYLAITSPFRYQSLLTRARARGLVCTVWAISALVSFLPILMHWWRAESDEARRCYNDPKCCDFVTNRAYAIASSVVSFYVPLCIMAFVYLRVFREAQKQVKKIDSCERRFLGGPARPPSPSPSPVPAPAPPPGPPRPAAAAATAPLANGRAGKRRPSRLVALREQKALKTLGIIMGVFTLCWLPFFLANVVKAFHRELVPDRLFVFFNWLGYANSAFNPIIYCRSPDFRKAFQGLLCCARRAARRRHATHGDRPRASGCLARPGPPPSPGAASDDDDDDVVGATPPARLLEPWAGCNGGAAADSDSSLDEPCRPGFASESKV
# ASSAY_TEXT: cAMP response in CHO cells stably transfected with human β1 adrenoceptor (Test 1)
MEASURED_METRIC: pEC50
Reminder that pEC50 means the negative base-10 logarithm of the concentration expressed in mol/L.

Quick check: pEC50 of CCCCOc1ccc(CC(C)(C)NCC(O)c2cc(O)cc3[nH]c(=O)sc23)cc1 (racemic) ?
6.16

---

# TARGET_OF_ASSAY: Serotonin 5-HT2C receptor (Homo sapiens)
# Sequence (P28335 33-458): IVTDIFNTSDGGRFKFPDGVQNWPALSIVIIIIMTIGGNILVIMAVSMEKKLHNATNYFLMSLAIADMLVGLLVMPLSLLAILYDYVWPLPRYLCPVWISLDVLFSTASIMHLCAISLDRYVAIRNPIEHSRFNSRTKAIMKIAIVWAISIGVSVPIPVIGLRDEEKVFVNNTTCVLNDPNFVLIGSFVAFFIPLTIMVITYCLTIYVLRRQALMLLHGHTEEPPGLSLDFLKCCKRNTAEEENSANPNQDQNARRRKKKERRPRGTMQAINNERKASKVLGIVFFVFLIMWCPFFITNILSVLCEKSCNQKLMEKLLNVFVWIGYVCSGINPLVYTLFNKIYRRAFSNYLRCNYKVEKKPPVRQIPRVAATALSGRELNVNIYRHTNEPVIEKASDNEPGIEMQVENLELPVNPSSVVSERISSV
# ASSAY_TEXT: Aequorin agonist assay in CHO-K1 cells expressing Serotonin 5-HT2C
# TEST_SETTINGS: aequorin luminescence, agonist mode
Provide the recorded EC50 for the entries that follow.
Quick note: give the figure in µM, leave out the unit.

API: value(readout= EC50, system= Serotonin 5-HT2C receptor (Homo sapiens), query= CCCCOc1ccc(CC(C)(C)NC[C@@H](O)c2cc(O)cc3[nH]c(=O)sc23)cc1 [Compound B (S)] )
0.0197

API: value(readout= EC50, system= Serotonin 5-HT2C receptor (Homo sapiens), query= CCCCOc1ccc(CC(C)(C)NCC(O)c2cc(O)cc3[nH]c(=O)sc23)cc1 (racemic) )
0.025

Source listed as patent US9623012B2.
